System: 1a-luc L31V (HCV genotype 1a replicon)
Experiment: Luciferase replicon transient transfection assay, 1a-luc L31V
Format: cell-based, hepatitis C virus
Details: Hepatitis C virus, 96 h, Huh7.5 cells, 4 days
Reported EC50 values follow for various molecules
Numbers only; they are read as nM.

Some molecules with recorded EC50:
COC(=O)N[C@H](C(=O)N1CCC[C@H]1c1ncc(-c2ccc(-c3csc4c(-c5ccc6[nH]c([C@@H]7CCCN7C(=O)[C@H](NC(=O)OC)c7ccccc7)nc6c5)csc34)cc2)[nH]1)C(C)C [Compound A172] : 3
COC(=O)N[C@H](C(=O)N1CCC[C@H]1c1ncc(-c2ccc(-c3cc4sc(-c5ccc(-c6c[nH]c(C7CCCN7C(=O)[C@H](NC(=O)OC)c7ccccc7)n6)cc5)cc4s3)cc2)[nH]1)C(C)C (stereo partly drawn) [Compound A192] : 11
COC(=O)N[C@H](C(=O)N1CCC[C@H]1c1nc2cc(-c3csc4c(-c5ccc(-c6cnc([C@@H]7CCCN7C(=O)[C@H](NC(=O)OC)c7ccccc7)[nH]6)cc5)csc34)ccc2[nH]1)C(C)C [Compound A169] : 0.9
COC(=O)N[C@H](C(=O)N1CCC[C@H]1c1nc(-c2ccc(-c3ccc(-c4c[nH]c([C@@H]5CCCN5C(=O)[C@@H](NC(=O)OC)C(C)C)n4)cc3)cc2)c[nH]1)C(C)C [BMS-790052, reference compound] : 23

Request: Enter recorded EC50 with 1a-luc L31V (HCV genotype 1a replicon) for COC(=O)N[C@H](C(=O)N1CCC[C@H]1c1ncc(-c2ccc(-c3csc4c(-c5cnc([C@@H]6CCCN6C(=O)[C@H](NC(=O)OC(C)(C)C)c6ccccc6)[nH]5)csc34)cc2)[nH]1)C(C)C [Compound A111] here.
Response: 36

Request: Enter measured EC50, system 1a-luc L31V (HCV genotype 1a replicon), for the molecule shown: COC(=O)N[C@H](C(=O)N1CCCC1c1ncc(-c2csc3c(-c4ccc(-c5cnc(C6CCCN6C(=O)C(c6ccccc6)N6CCCCC6)[nH]5)cc4)csc23)[nH]1)C(C)C (stereo partly drawn) [Compound A219]
Response: 18
